Entries annotated with measured phosphorylation enrichment
Target: Fes (UniProt P07332)
Sequence (P07332 whole entry, looked up): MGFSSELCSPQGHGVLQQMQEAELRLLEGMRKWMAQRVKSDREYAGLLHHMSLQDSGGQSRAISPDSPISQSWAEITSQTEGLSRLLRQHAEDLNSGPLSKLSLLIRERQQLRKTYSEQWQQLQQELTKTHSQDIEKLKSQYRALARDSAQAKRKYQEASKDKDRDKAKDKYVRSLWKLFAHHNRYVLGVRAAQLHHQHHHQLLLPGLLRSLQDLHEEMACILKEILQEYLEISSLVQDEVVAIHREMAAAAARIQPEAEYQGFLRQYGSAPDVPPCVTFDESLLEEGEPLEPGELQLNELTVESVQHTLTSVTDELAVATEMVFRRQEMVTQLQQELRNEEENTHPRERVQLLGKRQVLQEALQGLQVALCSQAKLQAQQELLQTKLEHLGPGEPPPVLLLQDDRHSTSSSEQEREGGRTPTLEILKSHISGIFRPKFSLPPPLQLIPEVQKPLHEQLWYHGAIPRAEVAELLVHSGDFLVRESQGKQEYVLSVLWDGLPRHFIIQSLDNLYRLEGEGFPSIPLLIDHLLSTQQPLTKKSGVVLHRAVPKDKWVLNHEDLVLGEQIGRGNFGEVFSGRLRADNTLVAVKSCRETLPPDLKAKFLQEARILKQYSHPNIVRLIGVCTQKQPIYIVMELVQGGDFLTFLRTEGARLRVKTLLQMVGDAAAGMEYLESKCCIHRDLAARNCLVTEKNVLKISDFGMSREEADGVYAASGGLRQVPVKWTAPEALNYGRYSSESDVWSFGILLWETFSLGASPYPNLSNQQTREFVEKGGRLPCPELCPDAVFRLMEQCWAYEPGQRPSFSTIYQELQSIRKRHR
Test: phosphorylation enrichment, bacterial display (enrichment ratio); higher = better substrate or ligand; peptides without Tyr show the background;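 further: 11-residue human phosphosite peptides and single-mutation variants displayed on the E. coli surface, counted by deep sequencing, each peptide's frequency after selection divided by its frequency in the unselected input library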;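 further: frequency after pTyr selection over input frequency; kinase dosed for 20-30% of maximal phosphorylation in three min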
Number only, please.

Past entries and their recorded results:
primary_sequence	phosphorylation enrichment
RSRRSYSCQVM [IGLL1_Y192]	0.862
LNEWHYGGLTG [PGAM2_Y92_R90W]	1.12
PFTRNYFVQAV [CYBA_Y87_R90Q_YF]	1.2

In: Please report phosphorylation enrichment with Fes (UniProt P07332) for item WVFNHYRWIIW [BRCA2_Y2624_YF] .
Out: 1.39

In: Please report phosphorylation enrichment with Fes (UniProt P07332) for item HICTAYKLVLA [DHCR24_Y190_E191K] .
Out: 2.86

In: Please report phosphorylation enrichment with Fes (UniProt P07332) for item FQHLRYIKQLG [SAMHD1_Y146_R143H] .
Out: 0.775

In: Please report phosphorylation enrichment with Fes (UniProt P07332) for item NIISFYLSRDP [CTSD_Y232_F229I] .
Out: 1.27

In: Please report phosphorylation enrichment with Fes (UniProt P07332) for item FTDGQYWIRGR [ACSF3_Y466_K462T] .
Out: 0.992

In: Please report phosphorylation enrichment with Fes (UniProt P07332) for item CTTIHCNYMCN [TP53_Y234_Y234C] .
Out: 1.15

* * *

Test system: c-Abl (mouse)
Assay: phosphorylation enrichment, bacterial display (enrichment ratio); higher = better substrate or ligand; peptides without Tyr show the background
Criterion: phosphorylation enrichment meeting or surpassing 0.7. Met: Satisfied. Not met: Not satisfied.

primary_sequence	class_name
NQDRTYYESVR [SPEN_Y632]	Satisfied
NGLVACKDGKL [PMM2_Y76_Y76C]	Not satisfied
PFQGAYLKINK [MYO1B_Y967_E969K]	Satisfied
ITLKGYNLSNS [GNPTAB_Y728_K732N]	Not satisfied

In: Check if phosphorylation enrichment >= 0.7 (inclusive). Item: TQNAVYSAANY [DDX5_Y535_G533A]
Out: Satisfied

* * *

Tested on: c-Src
Experiment: phosphorylation enrichment, bacterial display (enrichment ratio); higher = better substrate or ligand; peptides without Tyr show the background
Criterion: phosphorylation enrichment meeting or surpassing 0.5. Met: MET. Not met: NOT MET.

primary_sequence	class_name
CERLPYDASKW [FLT1_Y815]	NOT MET
LKEIHYPPFTD [ALDH3B2_Y362_YF]	NOT MET
CTTIHYNYMFN [TP53_Y234_C238F]	MET
VRFMAYTDETC [F8_Y450_F455C]	NOT MET
IQKWEYVPLGT [FAH_Y244_P249T]	NOT MET

In: Check if phosphorylation enrichment >= 0.5 (inclusive). Item: LNPDGYKKAFE [CPXM2_Y427_E428K_YF]
Out: MET

In: Check if phosphorylation enrichment >= 0.5 (inclusive). Item: FTNRNYDLDFD [MYC_Y12_YF]
Out: MET

In: Check if phosphorylation enrichment >= 0.5 (inclusive). Item: FCRHNYGVGES [HLA-DRB1_Y112_V115G_YF]
Out: NOT MET

In: Check if phosphorylation enrichment >= 0.5 (inclusive). Item: AKLVQYFMEHH [PTPN11_Y80_E76K_YF]
Out: NOT MET

In: Check if phosphorylation enrichment >= 0.5 (inclusive). Item: CTTIHYNFVCN [TP53_Y234_M237V_YF]
Out: MET

In: Check if phosphorylation enrichment >= 0.5 (inclusive). Item: SIKDKYLTALF [KCNH2_Y611_V612L_YF]
Out: NOT MET

In: Check if phosphorylation enrichment >= 0.5 (inclusive). Item: QLQTNYPSSDN [MAX_Y115]
Out: MET

In: Check if phosphorylation enrichment >= 0.5 (inclusive). Item: ALARKYHGGGG [HBB_Y146_H144R]
Out: NOT MET

In: Check if phosphorylation enrichment >= 0.5 (inclusive). Item: ICGVSYDEYRY [CFTR_Y512_F508C]
Out: MET

In: Check if phosphorylation enrichment >= 0.5 (inclusive). Item: KLMTEYKKRKQ [ARFGEF3_Y2029]
Out: NOT MET

* * *

Target: FGFR1 (UniProt P11362)
Sequence (P11362 whole entry, looked up): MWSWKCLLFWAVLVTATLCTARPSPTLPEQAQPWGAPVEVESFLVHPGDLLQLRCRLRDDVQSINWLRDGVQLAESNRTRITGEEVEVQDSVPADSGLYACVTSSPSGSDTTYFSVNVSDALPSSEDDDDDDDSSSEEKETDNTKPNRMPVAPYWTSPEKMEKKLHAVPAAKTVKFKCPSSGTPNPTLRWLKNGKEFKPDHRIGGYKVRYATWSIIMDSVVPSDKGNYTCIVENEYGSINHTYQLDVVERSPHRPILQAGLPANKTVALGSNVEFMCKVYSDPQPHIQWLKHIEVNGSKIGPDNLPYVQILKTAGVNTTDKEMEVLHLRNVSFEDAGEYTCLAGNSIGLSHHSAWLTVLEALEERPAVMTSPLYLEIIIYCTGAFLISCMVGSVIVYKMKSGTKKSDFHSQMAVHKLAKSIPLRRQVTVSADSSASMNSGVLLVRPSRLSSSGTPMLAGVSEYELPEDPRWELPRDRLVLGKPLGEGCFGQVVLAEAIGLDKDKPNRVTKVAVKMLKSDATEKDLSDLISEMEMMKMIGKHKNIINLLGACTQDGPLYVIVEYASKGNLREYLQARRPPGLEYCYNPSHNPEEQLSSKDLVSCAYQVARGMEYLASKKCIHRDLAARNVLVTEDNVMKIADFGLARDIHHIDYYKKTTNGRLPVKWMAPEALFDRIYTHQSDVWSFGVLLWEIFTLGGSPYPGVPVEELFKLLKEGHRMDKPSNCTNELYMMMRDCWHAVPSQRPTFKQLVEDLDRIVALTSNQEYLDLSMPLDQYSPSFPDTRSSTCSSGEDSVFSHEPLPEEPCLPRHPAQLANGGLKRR
Experiment: phosphorylation enrichment, bacterial display (enrichment ratio); higher = better substrate or ligand; peptides without Tyr show the background
Criterion: phosphorylation enrichment meeting or surpassing 0.5. Met: T. Not met: F.

In: Check if phosphorylation enrichment >= 0.5 (inclusive). Item: SGEKPYKCSVC [ZNF543_Y283_E287V]
Out: F

In: Check if phosphorylation enrichment >= 0.5 (inclusive). Item: KKYPDYIQSAM [SGMS2_Y59_I62S]
Out: F

In: Check if phosphorylation enrichment >= 0.5 (inclusive). Item: RENGPYFASFP [GDAP2_Y487_T489A_YF]
Out: T

In: Check if phosphorylation enrichment >= 0.5 (inclusive). Item: GLTSTYVGIRK [ROBO1_Y932_A933V]
Out: F

In: Check if phosphorylation enrichment >= 0.5 (inclusive). Item: HISGVYKLPPD [ANGPTL7_Y145_R140H]
Out: T

* * *

Test system: Fer (mouse)
Assay: phosphorylation enrichment, bacterial display (enrichment ratio); higher = better substrate or ligand; peptides without Tyr show the background
Entries annotated with measured phosphorylation enrichment

Past entries and their recorded results:
primary_sequence	assay_target	phosphorylation enrichment
PTTKTYFPHFA [HBA1_Y43_D48A]	Fer (mouse)	0.384
PPNSPYIGSSP [KCNT1_Y740]	Fer (mouse)	0.382
CRPPFYHRNCM [HGD_Y334_F329C_YF]	Fer (mouse)	0.375
SLDHPFEKPRK [INAVA_Y333_Y333F]	Fer (mouse)	0.3
SGEKPYKCSVC [ZNF543_Y283_E287V]	Fer (mouse)	0.398
TPTFPYLLPKS [PLD2_Y580_YF]	Fer (mouse)	0.382

From here, focus on the item given below.
In: Return phosphorylation enrichment (reported value) for this sequence: PTKNDYWAMLA [WWOX_Y287]
Out: 0.447

* * *

Biological target: EPHB2 (UniProt P29323)
Sequence (P29323 whole entry, looked up): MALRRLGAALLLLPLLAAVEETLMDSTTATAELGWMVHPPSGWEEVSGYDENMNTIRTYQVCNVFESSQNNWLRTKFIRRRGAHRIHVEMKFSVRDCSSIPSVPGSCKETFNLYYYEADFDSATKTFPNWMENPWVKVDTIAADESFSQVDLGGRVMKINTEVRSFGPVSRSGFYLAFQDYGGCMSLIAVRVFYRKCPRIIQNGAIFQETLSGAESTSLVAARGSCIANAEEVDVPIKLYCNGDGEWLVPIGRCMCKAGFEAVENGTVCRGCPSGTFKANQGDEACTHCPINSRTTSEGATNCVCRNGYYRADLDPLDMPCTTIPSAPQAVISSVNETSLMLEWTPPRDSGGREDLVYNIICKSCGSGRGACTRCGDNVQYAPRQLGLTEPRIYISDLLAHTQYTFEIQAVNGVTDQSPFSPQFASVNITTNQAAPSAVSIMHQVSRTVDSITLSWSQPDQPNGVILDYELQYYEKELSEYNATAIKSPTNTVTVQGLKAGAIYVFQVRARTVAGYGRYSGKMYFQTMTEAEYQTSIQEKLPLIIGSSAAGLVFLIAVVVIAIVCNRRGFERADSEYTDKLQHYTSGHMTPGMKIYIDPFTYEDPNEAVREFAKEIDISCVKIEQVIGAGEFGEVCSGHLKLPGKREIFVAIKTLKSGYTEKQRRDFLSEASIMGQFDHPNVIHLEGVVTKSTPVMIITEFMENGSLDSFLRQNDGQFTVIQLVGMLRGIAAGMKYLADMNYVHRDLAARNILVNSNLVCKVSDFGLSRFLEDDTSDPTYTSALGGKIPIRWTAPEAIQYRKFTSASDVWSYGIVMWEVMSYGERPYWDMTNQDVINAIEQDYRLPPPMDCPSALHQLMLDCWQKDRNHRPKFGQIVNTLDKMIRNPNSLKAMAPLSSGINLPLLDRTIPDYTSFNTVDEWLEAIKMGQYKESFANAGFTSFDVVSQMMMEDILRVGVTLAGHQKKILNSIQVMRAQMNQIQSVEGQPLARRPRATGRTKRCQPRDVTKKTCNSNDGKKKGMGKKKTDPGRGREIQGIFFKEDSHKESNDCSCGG
Assay: phosphorylation enrichment, bacterial display (enrichment ratio); higher = better substrate or ligand; peptides without Tyr show the background
Entries annotated with measured phosphorylation enrichment
Number only, please.

Past entries and their recorded results:
primary_sequence	assay_target	phosphorylation enrichment
GGFTRYCDGKK [PROS1_Y266_C265R_YF]	EPHB2 (UniProt P29323)	0.315
NGLVACKDGKL [PMM2_Y76_Y76C]	EPHB2 (UniProt P29323)	0.524
RLLREYQELMN [KRT75_Y434]	EPHB2 (UniProt P29323)	0.613

In: Return phosphorylation enrichment (reported value) for this sequence: SVTCMYSPALN [TP53_Y126_T125M]
Out: 0.632

In: Return phosphorylation enrichment (reported value) for this sequence: IQKWEYVPLGT [FAH_Y244_P249T]
Out: 0.532

In: Return phosphorylation enrichment (reported value) for this sequence: KGRAGYTTVAV [RET_Y752]
Out: 0.265

In: Return phosphorylation enrichment (reported value) for this sequence: CKRQFYLYKGK [RSPO4_Y112]
Out: 0.49

In: Return phosphorylation enrichment (reported value) for this sequence: RLNCIYYKDQT [RS1_Y165_W163C]
Out: 0.639

* * *

Biological target: MERTK (UniProt Q12866)
Sequence (Q12866 whole entry, looked up): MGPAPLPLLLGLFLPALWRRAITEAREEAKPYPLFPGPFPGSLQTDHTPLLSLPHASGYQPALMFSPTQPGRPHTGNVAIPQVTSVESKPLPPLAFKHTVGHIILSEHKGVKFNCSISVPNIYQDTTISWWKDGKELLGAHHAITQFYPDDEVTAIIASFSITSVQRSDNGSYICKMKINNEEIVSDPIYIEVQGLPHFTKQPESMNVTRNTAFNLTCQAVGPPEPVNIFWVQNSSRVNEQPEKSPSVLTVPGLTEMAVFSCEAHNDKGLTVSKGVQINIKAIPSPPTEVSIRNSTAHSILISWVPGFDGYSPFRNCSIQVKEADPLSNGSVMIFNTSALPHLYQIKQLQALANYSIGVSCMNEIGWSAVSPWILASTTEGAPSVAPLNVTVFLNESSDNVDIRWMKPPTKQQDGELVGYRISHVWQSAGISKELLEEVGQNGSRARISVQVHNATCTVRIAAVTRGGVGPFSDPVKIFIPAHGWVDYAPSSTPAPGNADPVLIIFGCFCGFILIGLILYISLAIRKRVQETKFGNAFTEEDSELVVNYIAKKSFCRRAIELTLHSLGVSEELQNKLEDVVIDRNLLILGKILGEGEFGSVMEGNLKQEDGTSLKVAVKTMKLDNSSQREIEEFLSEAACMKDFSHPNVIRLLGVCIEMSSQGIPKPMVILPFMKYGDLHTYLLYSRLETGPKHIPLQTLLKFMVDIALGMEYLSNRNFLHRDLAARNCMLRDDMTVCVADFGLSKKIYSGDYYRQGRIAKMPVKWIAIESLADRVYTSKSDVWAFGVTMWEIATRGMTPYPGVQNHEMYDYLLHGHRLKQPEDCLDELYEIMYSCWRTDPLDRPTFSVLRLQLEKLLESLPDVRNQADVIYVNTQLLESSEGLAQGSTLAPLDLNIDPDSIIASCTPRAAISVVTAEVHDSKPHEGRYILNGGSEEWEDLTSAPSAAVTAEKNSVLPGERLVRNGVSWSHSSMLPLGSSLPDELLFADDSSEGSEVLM
Experiment: phosphorylation enrichment, bacterial display (enrichment ratio); higher = better substrate or ligand; peptides without Tyr show the background
Criterion: phosphorylation enrichment meeting or surpassing 0.5. Met: True. Not met: False.

These recorded examples may help you get a feel for the data.
primary_sequence	class_name
FFCKFYNKSED [RYR1_Y4864_R4861C]	False
TVVVPYEPPEV [TP53_Y220_S215T]	True

In: Check if phosphorylation enrichment >= 0.5 (inclusive). Item: RENGPYFASFP [GDAP2_Y487_T489A_YF]
Out: True

In: Check if phosphorylation enrichment >= 0.5 (inclusive). Item: FTDPFYDFEIE [ZC3H18_Y372_A368T_YF]
Out: True

In: Check if phosphorylation enrichment >= 0.5 (inclusive). Item: NTFEKYWPFFQ [GATM_Y103_YF]
Out: True

* * *

Entries annotated with measured phosphorylation enrichment
Biological target: EPHB2 (UniProt P29323)
Experiment: phosphorylation enrichment, bacterial display (enrichment ratio); higher = better substrate or ligand; peptides without Tyr show the background
Number only, please.

Past entries and their recorded results:
primary_sequence	assay_target	phosphorylation enrichment
ALARKYHGGGG [HBB_Y146_H144R]	EPHB2 (UniProt P29323)	0.307
YCVDCYKNFVA [FHL1_Y213]	EPHB2 (UniProt P29323)	0.514
KRLYAYKMLMA [TMC2_Y209_Q205R]	EPHB2 (UniProt P29323)	0.493
LARNMYDKEYY [MET_Y1230_D1228N]	EPHB2 (UniProt P29323)	0.546
LINPKYSVEEE [PCDH19_Y27_L25P]	EPHB2 (UniProt P29323)	0.986

In: Return phosphorylation enrichment (reported value) for this sequence: RRGMPYGGHGD [TGM1_Y312_R315H]
Out: 0.624

In: Return phosphorylation enrichment (reported value) for this sequence: CWAVKYLQMVG [AVPR2_Y117_R113W]
Out: 0.832

In: Return phosphorylation enrichment (reported value) for this sequence: RVQQIYSDSDL [MIB1_Y376]
Out: 0.837

In: Return phosphorylation enrichment (reported value) for this sequence: ASYGPNTRVQS [FOXL2_Y258_Y258N]
Out: 0.407

In: Return phosphorylation enrichment (reported value) for this sequence: TYGQVYKGPHV [TNIK_Y40_R43P]
Out: 0.633

In: Return phosphorylation enrichment (reported value) for this sequence: PPVVNYEEDAR [FER_Y402]
Out: 0.892

Ref: the supplement of paper PMC10065799
